Conditions: fish
Binary call on log10 BCF: fulfilled from 1 upward, not fulfilled beneath that.

Please review the entries below; each comes with its answer.
MOLECULE: O=[N+]([O-])c1c(Cl)cc(Cl)cc1Cl
GROUP: fulfilled

MOLECULE: c1ccc2c(c1)[nH]c1ccccc12
GROUP: fulfilled

Task: Answer whether log10 BCF of `O=C(O)c1c(Cl)cccc1Cl` is greater than or equal to 1.
Result: not fulfilled

Task: Answer whether log10 BCF of `Clc1ccc(Cl)c(-c2cc(Cl)c(Cl)cc2Cl)c1` is greater than or equal to 1.
Result: fulfilled

----------
Listing of entries alongside the reported melting point.
The reply should be a number in °C, with the unit left off.

Task: Recorded melting point for `ICCCCCI` , please?
Result: 9

Task: Recorded melting point for `NC(=O)C1(N2C(=O)c3cccc(Cl)c3C2=O)CCCCC1` , please?
Result: 194

Task: Recorded melting point for `Oc1ccccc1Cc1ccccc1` , please?
Result: 21

Task: Recorded melting point for `NC(=O)c1ccccc1C(N)=O` , please?
Result: 222

Task: Recorded melting point for `CC[C@@H]1CN2CCc3c([nH]c4cccc(OC)c34)[C@H]2C[C@@H]1/C(=C\OC)C(=O)OC` , please?
Result: 104

Task: Recorded melting point for `Brc1c2ccccc2c(Br)c2ccccc12` , please?
Result: 226

Task: Recorded melting point for `CC(=O)OCC(=O)c1ccccc1` , please?
Result: 49

----------
Listing of entries alongside the reported boiling point.

COMPOUND: FCCC(F)(F)F
RESULT: 29.4 °C
//
COMPOUND: FC(F)(F)CS
RESULT: 34.5 °C
//
COMPOUND: CCCCC(CC)CNC1CCCCC1 (configuration not stated)
RESULT: 270 °C
//
COMPOUND: C1=CCCCCC1
RESULT: 115 °C
//
COMPOUND: CCCCCCCCOC(=O)CC
RESULT: 228 °C

Task: Recorded boiling point for `CC(C)CC(=O)OCc1ccccc1` , please?
Result: 245 °C

Task: Recorded boiling point for `CCC(C)(Cl)CC` , please?
Result: 116 °C

Task: Recorded boiling point for `c1cnoc1` , please?
Result: 95 °C

Task: Recorded boiling point for `C[Si](C)(C)O[Si](C)(C)O[Si](C)(C)O[Si](C)(C)O[Si](C)(C)C` , please?
Result: 232 °C

Task: Recorded boiling point for `COC(=O)CCC#N` , please?
Result: 211 °C

Task: Recorded boiling point for `COCCC(=O)OC` , please?
Result: 143 °C

Task: Recorded boiling point for `Oc1c(Cl)cccc1Cl` , please?
Result: 220 °C

Task: Recorded boiling point for `FC1(F)C(F)(F)C(F)(F)C1(F)F` , please?
Result: -5.9 °C

----------
ASSAY_METRIC: log10 vapour pressure (mmHg)
Write the value as a bare number.

Here's what some known entries look like.
COMPOUND: CCC=C(C)C
log10 vapour pressure (mmHg): 2.2
--
COMPOUND: CCCNCCC
log10 vapour pressure (mmHg): 1.3
--
COMPOUND: Cc1ccccc1N(C)C
log10 vapour pressure (mmHg): -0.0643
--
COMPOUND: CCCC(O)CCC
log10 vapour pressure (mmHg): -0.0048
--
COMPOUND: FC(F)(Br)Br
log10 vapour pressure (mmHg): 2.91
--
COMPOUND: CCCCC(CC)COP(=O)(Oc1ccccc1)Oc1ccccc1 (configuration not stated)
log10 vapour pressure (mmHg): -4.3
--
COMPOUND: SC1CCCCC1
log10 vapour pressure (mmHg): 0.598
--
COMPOUND: CCCCCCCCCCCCCCCCI
log10 vapour pressure (mmHg): -4.78

Here is the next item to consider.
Task: Recorded log10 vapour pressure (mmHg) for CCC(C)S (configuration not stated) , please?
Result: 1.91

----------
Conditions: fish
In plain terms, low log10 BCF, meaning strictly below 2, gives Y, and everything else gives N.

Please review the entries below; each comes with its answer.
MOLECULE: N#CSCSc1nc2ccccc2s1
GROUP: N
--
MOLECULE: NC(=O)c1c(Cl)c(Cl)c(Cl)c(Cl)c1C(=O)O
GROUP: Y
--
MOLECULE: CC(C)(C)OOC(C)(C)CCC(C)(C)OOC(C)(C)C
GROUP: N

Task: Answer whether the molecule `N#Cc1cccc(C#N)c1` has log10 BCF strictly less than 2
Result: Y

Task: Answer whether the molecule `COc1c(Cl)cc(Cl)cc1Cl` has log10 BCF strictly less than 2
Result: N

Task: Answer whether the molecule CC1CCC(C(=O)O)C(C(=O)O)C1 (stereo unspecified) has log10 BCF strictly less than 2
Result: Y

Task: Answer whether the molecule `CCCCOCCOP(=O)(OCCOCCCC)OCCOCCCC` has log10 BCF strictly less than 2
Result: Y

Task: Answer whether the molecule `C=Cc1cccc(C=C)c1` has log10 BCF strictly less than 2
Result: N

Task: Answer whether the molecule `FC(F)(F)c1cccc(Cl)c1` has log10 BCF strictly less than 2
Result: N

Task: Answer whether the molecule `COP(=S)(OC)Oc1ccc([N+](=O)[O-])cc1` has log10 BCF strictly less than 2
Result: Y

Task: Answer whether the molecule `CCSC(=O)N1CCCCCC1` has log10 BCF strictly less than 2
Result: Y

Task: Answer whether the molecule `c1ccc2sc(SSc3nc4ccccc4s3)nc2c1` has log10 BCF strictly less than 2
Result: Y

Task: Answer whether the molecule `Clc1ccc2ccccc2c1` has log10 BCF strictly less than 2
Result: N

Task: Answer whether the molecule `Brc1ccc(Oc2cc(Br)c(Br)c(Br)c2)cc1Br` has log10 BCF strictly less than 2
Result: N

Task: Answer whether the molecule `COC(C)(C)C` has log10 BCF strictly less than 2
Result: Y

Task: Answer whether the molecule `O=[N+]([O-])c1ccc(Oc2c(Cl)cc(Cl)cc2Cl)cc1` has log10 BCF strictly less than 2
Result: N

Task: Answer whether the molecule `Clc1cccc(Cl)c1-c1c(Cl)cccc1Cl` has log10 BCF strictly less than 2
Result: N

Task: Answer whether the molecule `CNc1ccccc1` has log10 BCF strictly less than 2
Result: Y

Task: Answer whether the molecule `CC(C)(O)C(Cl)(Cl)Cl` has log10 BCF strictly less than 2
Result: Y

----------
Listing of entries alongside the reported log10 vapour pressure (mmHg).
Write the value as a bare number.

Here's what some known entries look like.
COMPOUND: CCCOC/C(=N\c1ccc(Cl)cc1C(F)(F)F)n1ccnc1
MEASURED_NUMBER: -5.85
--
COMPOUND: CN=C=O
MEASURED_NUMBER: 2.54
--
COMPOUND: CCCCCCCCCCCCCCCCBr
MEASURED_NUMBER: -4.31
--
COMPOUND: Clc1ccc(Oc2cccc(Cl)c2Cl)cc1
MEASURED_NUMBER: -3.94
--
COMPOUND: C=C(C)C(=O)O
MEASURED_NUMBER: -0.0044
--
COMPOUND: FC(F)(F)F
MEASURED_NUMBER: 5.24

Task: Recorded log10 vapour pressure (mmHg) for `Clc1cc2oc3c(Cl)c(Cl)c(Cl)cc3c2cc1Cl` , please?
Result: -8.58

Task: Recorded log10 vapour pressure (mmHg) for CCC(C)[N+](=O)[O-] (stereo not drawn) , please?
Result: 0.891

----------
Conditions: fish
ASSAY_METRIC: log10 BCF
Write the value as a bare number.

MOLECULE: Clc1ccc(Cl)c(-c2cccc(Cl)c2Cl)c1
log10 BCF: 4.84

MOLECULE: c1ccc(COCc2ccccc2)cc1
log10 BCF: 2.43

MOLECULE: Clc1ccc(C(c2ccc(Cl)cc2)C(Cl)(Cl)Cl)cc1
log10 BCF: 4.29

MOLECULE: c1cc2ccc3cccc4ccc(c1)c2c34
log10 BCF: 3.18

MOLECULE: Cc1c(Br)c(Br)c(Br)c(Br)c1Br
log10 BCF: 2.43

MOLECULE: Brc1cccc(Br)c1
log10 BCF: 2.82

Task: Recorded log10 BCF for `CC(C)(C)O` , please?
Result: 0.7

Task: Recorded log10 BCF for `CN(C)Cc1ccccc1` , please?
Result: 1.15

Task: Recorded log10 BCF for `Nc1ccc2ccccc2c1S(=O)(=O)O` , please?
Result: 0.78

Task: Recorded log10 BCF for `Brc1cc(Br)cc(Br)c1` , please?
Result: 3.7

Task: Recorded log10 BCF for `S=C=S` , please?
Result: 1.29

Task: Recorded log10 BCF for ClC1=C(Cl)C2(Cl)C3CC(Cl)(Cl)CC3C1(Cl)C2(Cl)Cl (stereo not given) , please?
Result: 4.3

Task: Recorded log10 BCF for `CC1=CC(=O)CC(C)(C)C1` , please?
Result: 0.3

Task: Recorded log10 BCF for `Cc1ccccc1O` , please?
Result: 1.03

Task: Recorded log10 BCF for `Brc1cc(Br)c(Oc2c(Br)cc(Br)c(Br)c2Br)c(Br)c1Br` , please?
Result: 5.3

Task: Recorded log10 BCF for `Cc1ccc2c(ccc3ccccc32)c1` , please?
Result: 3.48

Task: Recorded log10 BCF for `CCCCN(CCCC)CCCC` , please?
Result: 1.4

Task: Recorded log10 BCF for `c1ccc2c(c1)oc1ccccc12` , please?
Result: 3.18

Task: Recorded log10 BCF for `C=C[C@@]1(C)C=C2CC[C@@H]3[C@](C)(CCC[C@@]3(C)C(=O)O)[C@H]2CC1` , please?
Result: 1.92

Task: Recorded log10 BCF for `CCOP(=O)(OCC)Oc1cc(C)nc(C(C)C)n1` , please?
Result: -0.35

Task: Recorded log10 BCF for `COP(=O)(OC)OC` , please?
Result: 0.15

Task: Recorded log10 BCF for `CC(C)(c1ccc(OC(F)(F)C(F)F)cc1)c1ccc(OC(F)(F)C(F)F)cc1` , please?
Result: 4.35

Task: Recorded log10 BCF for `COP(=O)(OC)Oc1ccc([N+](=O)[O-])c(C)c1` , please?
Result: 0.44

Task: Recorded log10 BCF for `COP(=S)(OC)Oc1c(Cl)cc(C)cc1Cl` , please?
Result: 2.86

Task: Recorded log10 BCF for `CC(C)(C)C(=O)O` , please?
Result: 0.36

Values were extracted from the OPERA property sets (Mansouri et al. 2018).
